Molecular target: human IRAK4 (Homo sapiens (Human), UniProt Q9NWZ3)
Sequence (Q9NWZ3 whole entry): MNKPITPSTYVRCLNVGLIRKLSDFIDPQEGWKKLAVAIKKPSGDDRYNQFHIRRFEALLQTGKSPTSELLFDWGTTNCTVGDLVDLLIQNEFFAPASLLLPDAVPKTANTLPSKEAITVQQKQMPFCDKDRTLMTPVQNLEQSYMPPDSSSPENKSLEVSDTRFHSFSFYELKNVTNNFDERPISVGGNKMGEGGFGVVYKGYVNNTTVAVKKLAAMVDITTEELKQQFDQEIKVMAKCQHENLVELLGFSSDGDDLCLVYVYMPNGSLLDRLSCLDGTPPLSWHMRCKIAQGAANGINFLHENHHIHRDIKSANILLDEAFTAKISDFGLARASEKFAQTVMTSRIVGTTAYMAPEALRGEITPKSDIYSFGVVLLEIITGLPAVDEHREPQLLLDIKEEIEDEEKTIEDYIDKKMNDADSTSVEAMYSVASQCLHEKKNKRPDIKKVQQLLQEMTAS
Assay: IRAK4 kinase inhibition, Transcreener fluorescence polarization ADP assay
Conditions: recombinant full-length His6-IRAK4; 125 uM ATP; 90 min; Ki computed using ATP Km 642 uM
Measured quantity: Ki (nM)

Structure string | Ki / nM
CC[C@@]1(C)Cc2cc(NC(=O)c3cnn4cccnc34)c(N3CCOCC3)cc2O1 | 14

I = NC(=O)CN1CCN(c2cc3c(cc2NC(=O)c2cnn4cccnc24)CN(C2CCOCC2)C3=O)CC1
II = CN1CCC2(CC1)Cc1cc(NC(=O)c3cnn4cccnc34)c(N3CCC(CO)CC3)cc1O2
Lookup: Endpoint returns the identifier whose Ki is numerically larger, either I or II . API: response body contains the label of the selected item.
Found: I

----------
Biological target: human IRAK4 (Homo sapiens (Human))
Test: IRAK4 kinase inhibition, Transcreener fluorescence polarization ADP assay
Conditions: recombinant full-length His6-IRAK4; 125 uM ATP; 90 min; Ki computed using ATP Km 642 uM
Protocol: Compounds were assayed for inhibition of human IRAK4 and IRAK1 catalytic activity using recombinant enzyme produced from insect cells. Full-length IRAK4 protein, carrying an N-terminal His6-Tag, was obtained from Life Technologies (Carlsbad, Calif., USA). The IRAK1 construct was produced internally and was comprised of IRAK1 residues Arg194 to Ser712, preceded by an NH2-terminal His6 tag and the coding sequence for glutathione-S-transferase.
pKi: −log10 of the molar value.
Measured quantity: pKi

1 = Cc1cnc2c(C(=O)Nc3cc4c(cc3N3CCC(CO)CC3)OCCN4)cnn2c1
2 = Cn1cnc(COc2cc3c(cc2NC(=O)c2cnn4cccnc24)CC(C)(C)O3)c1
3 = CC1(C)Cc2cc(NC(=O)c3cnn4cccnc34)c(OCc3c[nH]cn3)cc2O1
4 = CC1(C)Cc2cc(NC(=O)c3cnn4cccnc34)c(N3CCN(CC(O)CO)CC3)cc2O1 (stereo not shown)
Lookup: Re-order the entries listed above so their pKi values fall from first to last. Answer with the labels in sequence, matching the requested order.
Found: 1, 4, 3, 2
(1: 8.41, 4: 8.06, 3: 7.48, 2: 6.66)

----------
Molecular target: human IRAK4 (Homo sapiens (Human), UniProt Q9NWZ3)
Assay: IRAK4 kinase inhibition, Transcreener fluorescence polarization ADP assay
Settings: recombinant full-length His6-IRAK4; 125 uM ATP; 90 min; Ki computed using ATP Km 642 uM
Protocol: Compounds were assayed for inhibition of human IRAK4 and IRAK1 catalytic activity using recombinant enzyme produced from insect cells. Full-length IRAK4 protein, carrying an N-terminal His6-Tag, was obtained from Life Technologies (Carlsbad, Calif., USA). The IRAK1 construct was produced internally and was comprised of IRAK1 residues Arg194 to Ser712, preceded by an NH2-terminal His6 tag and the coding sequence for glutathione-S-transferase.
pKi: −log10 of the molar value.
Measured quantity: pKi

Molecule | pKi
CC1(C)Cc2cc(NC(=O)c3cnn4cccnc34)c(OC[C@@H]3C[C@@H]4C[C@@H]4N3CC(F)F)cc2O1 | 6.16
O=C(Nc1cc2c(cc1N1CCC(CO)CC1)O[C@@](CO)(C(F)(F)F)C2)c1cnn2cccnc12 | 8.62
C[C@@]1(CO)Cc2cc(NC(=O)c3cnn4cccnc34)c(N3C[C@@H]4C[C@H]3CO4)cc2O1 (single isomer, unassigned) | 6.27

1 = CC1(C)Cc2cc(NC(=O)c3cnn4cccnc34)c(N3CCN(C(C)(C)C(N)=O)CC3)cc2O1
2 = CC1(C)Cc2cc(NC(=O)c3cnn4cccnc34)c(N3CCN(CCN4CCCC4=O)CC3)cc2O1
Lookup: Of 1 versus 2 , which is the one with smaller reported pKi? API: response body contains the label of the selected item.
Found: 2
(2: 7.92, 1: 8.22)

A = C[C@@]1(CO)Cc2cc(NC(=O)c3cnn4cc(Cl)cnc34)c(N3CCC(CO)CC3)cc2O1
B = CC1(C)Cc2cc(NC(=O)c3cnn4cccnc34)c(N3CCN(CC(=O)NC4CC4)CC3)cc2O1
Lookup: Of A versus B , which is the one with smaller reported pKi? API: response body contains the label of the selected item.
Found: B
(B: 7.55, A: 8.55)

P = CC1(C)Cc2cc(NC(=O)c3cnn4cccnc34)c(N3CCC(C(N)=O)CC3)cc2O1
Q = Cn1cc(COc2cc3c(cc2NC(=O)c2cnn4cccnc24)C[C@@](C)(O)CO3)cn1 (single isomer, unassigned)
R = C[C@]1(CO)Cc2cc(NC(=O)c3cnn4cccnc34)c(N3CC[C@@H](F)C3)cc2O1
Lookup: Order the entries by their reported pKi, beginning at the minimum. Answer with the labels in sequence, matching the requested order.
Found: Q, R, P
(Q: 6.89, R: 7.44, P: 8.49)

a = O=C(Nc1cc2c(cc1N1CCOCC1)C(=O)N(C[C@@H]1CCC[C@@H]1O)C2)c1cnn2cccnc12
b = CC(C)NC(=O)CN1CCN(c2cc3c(cc2NC(=O)c2cnn4cccnc24)CC(C)(C)O3)CC1
Lookup: Endpoint returns the identifier whose pKi is numerically larger, either a or b . API: response body contains the label of the selected item.
Found: a

----------
Molecular target: human IRAK4 (Homo sapiens (Human))
Experiment: IRAK4 kinase inhibition, Transcreener fluorescence polarization ADP assay
Conditions: recombinant full-length His6-IRAK4; 125 uM ATP; 90 min; Ki computed using ATP Km 642 uM
Measured quantity: Ki (µM)

Compound | Value unit | Observed result
CC1(C)Cc2cc(NC(=O)c3cnn4cccnc34)c(OC[C@H]3CCNC(=O)C3)cc2O1 | µM | 0.052

1 = CNC[C@H]1OC[C@@H](c2cc3c(cc2NC(=O)c2cnn4cccnc24)CC(C)(C)O3)CO1
2 = Cc1c2c(cc(NC(=O)c3cnn4cccnc34)c1N1CCOCC1)C[C@](C)(CO)O2
3 = C[C@@]1(O)COc2cc(N3CCOCC3)c(NC(=O)c3cnn4cccnc34)cc2C1 (single isomer, unassigned)
Lookup: Put the entries in order of Ki, starting with the largest number. Answer with the labels in sequence, matching the requested order.
Found: 1, 2, 3
(1: 0.78 µM, 2: 0.062 µM, 3: 0.027 µM)

I = CN(Cc1ccc(C#N)cc1)c1cc2c(cc1NC(=O)c1cnn3cccnc13)CC(C)(C)O2
II = CC1(C)Cc2cc(NC(=O)c3cnn4cccnc34)c(N3CCN(Cc4c[nH]cn4)CC3)cc2O1
Lookup: Endpoint returns the identifier whose Ki is numerically larger, either I or II . API: response body contains the label of the selected item.
Found: I
(I: 0.086 µM, II: 0.0011 µM)

1 = C[C@@]1(CO)Cc2cc(NC(=O)c3cnn4cccnc34)c(N3CCN(CCO)CC3)cc2O1
2 = CC(C)(CO)N1Cc2cc(NC(=O)c3cnn4cccnc34)c(N3CCOCC3)cc2C1=O
Lookup: Endpoint returns the identifier whose Ki is numerically larger, either 1 or 2 . API: response body contains the label of the selected item.
Found: 2
(2: 0.024 µM, 1: 0.0076 µM)

----------
Target: human IRAK4 (Homo sapiens (Human), UniProt Q9NWZ3)
Test: IRAK4 kinase inhibition, Transcreener fluorescence polarization ADP assay
Conditions: recombinant full-length His6-IRAK4; 125 uM ATP; 90 min; Ki computed using ATP Km 642 uM
Measured quantity: Ki (nM)

Worked examples follow.
Compound | Ki, nM
C[C@]1(CO)Cc2cc(NC(=O)c3cnn4cccnc34)c(N3CCC(F)(F)C3)cc2O1 | 24
CC1(C)Cc2cc(NC(=O)c3cnn4cccnc34)c(C(N)=O)cc2O1 | 150

I = O=C(Nc1cc2c(cc1N1CCC(F)(CO)CC1)O[C@@](CO)(C(F)(F)F)C2)c1cnn2cccnc12
II = O=C(Nc1cc2c(cc1N1CCC(CO)CC1)OCCN2)c1cnn2cccnc12
III = CC1(C)Cc2cc(NC(=O)c3cnn4cccnc34)c(N3CCN4CCC[C@@H]4C3)cc2O1
IV = C[C@@]1(CO)Cc2cc(NC(=O)c3cnn4cccnc34)c(N3CCC([C@@](C)(O)C(F)(F)F)CC3)cc2O1
V = CC1(C)Cc2cc(NC(=O)c3cnn4cccnc34)c(N3CCC(F)(C(N)=O)CC3)cc2O1
Lookup: Order the entries by their reported Ki, beginning at the minimum. Answer with the labels in sequence, matching the requested order.
Found: V, I, II, IV, III

a = CC1(C)Cc2cc(NC(=O)c3cnn4cccnc34)c(N3CC4COCC4C3)cc2O1 (stereo not shown)
b = CC(C)(O)[C@H](F)CN1Cc2cc(NC(=O)c3cnn4cccnc34)c(Cl)cc2C1=O
c = O=C(Nc1cc2c(cc1N1CCOCC1)C(=O)N(C[C@@H]1CCC[C@H]1O)C2)c1cnn2cccnc12 (stereo in doubt)
d = CC1(C)Cc2cc(NC(=O)c3cnn4cccnc34)c(N3CCC(C(N)=O)C3)cc2O1 (stereo not shown)
e = CC(C)(O)CCN1Cc2cc(NC(=O)c3cnn4cccnc34)c(N3CCOCC3)cc2C1=O
Lookup: Put the entries in order of Ki, starting with the largest number. Answer with the labels in sequence, matching the requested order.
Found: a, d, c, b, e
(a: 27 nM, d: 13 nM, c: 8.1 nM, b: 4 nM, e: 2.2 nM)

a = CC(C)(O)C1CCN(c2cc3c(cc2NC(=O)c2cnn4cccnc24)C[C@@](C)(CO)O3)CC1
b = CC1(C)CN(c2cc3c(cc2NC(=O)c2cnn4cccnc24)CC(C)(CO)O3)CCO1 (stereo not shown)
Lookup: Of a versus b , which is the one with smaller reported Ki? API: response body contains the label of the selected item.
Found: a
(a: 4.2 nM, b: 180 nM)

These data points were gathered from patent US10988478B1.
